target.desc: PDGF-receptor beta enzyme comprising the tyrosine kinase domain (Homo sapiens, UniProt P09619)
Construct: from amino acid 545 to 1106 of GenBank Access NO: AAA36427
Sequence (P09619 545-1106): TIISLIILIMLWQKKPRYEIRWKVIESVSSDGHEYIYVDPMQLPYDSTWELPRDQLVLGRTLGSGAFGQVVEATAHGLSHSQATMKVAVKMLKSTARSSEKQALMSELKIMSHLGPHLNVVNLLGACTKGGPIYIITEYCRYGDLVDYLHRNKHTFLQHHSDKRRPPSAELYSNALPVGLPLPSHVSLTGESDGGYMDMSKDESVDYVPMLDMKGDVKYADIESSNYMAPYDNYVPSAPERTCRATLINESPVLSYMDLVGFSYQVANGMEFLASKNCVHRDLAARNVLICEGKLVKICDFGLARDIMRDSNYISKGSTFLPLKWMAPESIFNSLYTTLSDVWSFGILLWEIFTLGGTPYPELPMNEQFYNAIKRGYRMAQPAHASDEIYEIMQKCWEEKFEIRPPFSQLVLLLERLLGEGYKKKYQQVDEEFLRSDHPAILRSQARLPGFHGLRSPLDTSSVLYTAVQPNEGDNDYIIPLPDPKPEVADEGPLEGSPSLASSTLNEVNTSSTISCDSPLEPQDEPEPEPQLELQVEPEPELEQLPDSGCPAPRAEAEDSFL
method.summary: Inhibition of PDGF-receptor kinase activity (cell-free, PLC1 peptide, 33P Flashplate)
Format: biochemical
settings: PDGF-R kinase activity; read-out: IC50
pIC50 overview
When answering, recall that pIC50 equals minus log10 of the concentration in mol/L, and write that number alone.

CCOc1cc2c(cc1OCC)-c1n[nH]c(NCc3cccc(F)c3)c1C2 = 6.58
CCOc1cc2c(cc1OCC)C(C)c1c-2n[nH]c1Nc1cccc(Br)c1 (stereo not drawn) = 7.13
COc1cc2c(cc1OC)-c1n[nH]c(Nc3ccccc3C)c1C2 = 6.94
COc1cc2c(cc1OC)-c1n[nH]c(Nc3cccc(C(=O)NCCO)c3)c1C2 = 6.56

Q: # lookup: pIC50 of COc1cc2c(cc1F)Cc1c-2n[nH]c1Nc1cccc(F)c1
A: 8.03

Q: Entry Cc1cccc2c1Cc1c-2n[nH]c1Nc1ccc(F)cc1 has what pIC50?
A: 4.51

Q: Give the measured pIC50 of CCCC(=O)OCn1nc(Nc2cccc(F)c2)c2c1-c1cc(OC)c(OC)cc1C2 .
A: 7.55

Q: Which pIC50 value belongs to COc1cc2c(cc1OC)C(C)c1c-2n[nH]c1Nc1cccnc1Cl (single isomer, unassigned) ?
A: 7.43

Q: Quick check: pIC50 of COCCCOc1ccc2c(c1)Cc1c-2n[nH]c1Nc1cccc(Cl)c1 ?
A: 6.69

Q: Need pIC50, item COc1ccc2c(c1)-c1n[nH]c(Nc3ccc(OC(F)(F)F)cc3)c1C2
A: 6.28

* * *

target.desc: PDGF-receptor beta enzyme comprising the tyrosine kinase domain (Homo sapiens, UniProt P09619)
Construct: from amino acid 545 to 1106 of GenBank Access NO: AAA36427
method.summary: Inhibition of PDGF-receptor kinase activity (cell-free, PLC1 peptide, 33P Flashplate)
Format: biochemical
settings: PDGF-R kinase activity; read-out: IC50
quantity.kind: log10 IC50 (log10 of the value in µM)
Friendly reminder: values = log10 of IC50, unit µM.

COc1ccc(Cl)cc1Nc1[nH]nc2c1Cc1ccccc1-2 [Compound 342] = -1.57
COc1cc2c(cc1OC)-c1n[nH]c(Nc3cc(F)cc(F)c3)c1C2 [Compound 207] = -2.00
COc1cc2c(cc1OC)-c1n[nH]c(Nc3ccc(Br)cc3)c1C2 [Compound 45] = 0.33
COc1cc2c(cc1OC)-c1c(c(Nc3cccc(F)c3)nn1C(=O)CCC(N)=O)C2 [Compound 531] = -1.62
CC(C)Oc1cc2c(cc1OC(C)C)-c1n[nH]c(Nc3cccc(F)c3)c1C2 [Compound 169] = -1.44

Q: Quick one: log10 IC50 of OCCCOc1cccc2c1Cc1c-2n[nH]c1NCc1c(F)cccc1F [Compound 443] ?
A: -1.01

Q: Name the reported log10 IC50 value associated with the compound COc1cc2c(cc1OCC(O)CO)Cc1c-2n[nH]c1NCc1ccccc1F (stereo not drawn) [Compound 387]
A: -1.94

Q: Fill in the blank: the reported log10 IC50 of CN(C)CCCOc1ccc2c(c1)Cc1c-2n[nH]c1Nc1cc(F)ccc1F [Compound 163] is ____.
A: 1.36

Q: Report log10 IC50 for COc1cc2c(cc1OC)-c1n[nH]c(Nc3ccccc3Br)c1C2 [Compound 43] please.
A: -0.71
